TESTED SYSTEM: T1, recombinant human LRP1 ligand binding cluster II (amino acids 786-1165, C-terminal Fc) (human)
T1 construct: range 786-1165; Bought from R&D Systems, NS0-expressed; also called rhLRP1 cluster II; hrLRP1 cluster II
T1 sequence (Q07954 786-1165): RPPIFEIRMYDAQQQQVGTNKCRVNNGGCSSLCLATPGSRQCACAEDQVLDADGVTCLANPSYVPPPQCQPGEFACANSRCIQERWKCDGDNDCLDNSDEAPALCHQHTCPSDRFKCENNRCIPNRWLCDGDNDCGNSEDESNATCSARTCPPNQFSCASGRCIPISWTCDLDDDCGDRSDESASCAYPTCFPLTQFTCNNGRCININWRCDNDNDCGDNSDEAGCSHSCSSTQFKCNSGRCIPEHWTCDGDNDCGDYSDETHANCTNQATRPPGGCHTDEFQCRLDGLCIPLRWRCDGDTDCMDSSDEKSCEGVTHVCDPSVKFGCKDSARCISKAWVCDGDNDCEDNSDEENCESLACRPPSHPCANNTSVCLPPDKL
MEASUREMENT PROTOCOL: competition ELISA, inhibition of RAP d3 (2 nM) binding to coated LRP1 cluster II-Fc
ENDPOINT LABEL: pEC50
pEC50 is defined as minus the log10 of a concentration measured in mol/L.

*Q* Form field: reported pEC50 of mRAPc (N-terminal biotin-GGSGG; intramolecular disulfide between C241 and C315 (mature RAP numbering), Synthetic; also called mRAPc peptide; monomeric peptide) peptide: CGFREELKHFEAKIEKHNHYQKQLEIAHEKLRHAESVGDGERVSRSREKHALLEGRTKELGYTVKKHLQDLSGGC
*A* 7.49
